# System: Bacteroides caccae
# assay: growth AUC relative to DMSO control (median of replicates) (fraction); higher = more growth (less inhibition), active = hit call of the paper
# conditions: 20 µM; 24 h
Assign 1 to entries whose growth AUC meets or exceeds 1; assign -1 to the rest.

INSERT INTO assay_data (molecule, class_assignment) VALUES
  ('O=C(O)COc1ccccc1', -1),
  ('C#CCOc1ccc(CCNC(=O)C(OCC#C)c2ccc(Cl)cc2)cc1OC (configuration not stated)', -1),
  ('CCOC1Oc2ccc(OS(C)(=O)=O)cc2C1(C)C (configuration not stated)', -1),
  ('CNC(=O)Oc1cccc(N=CN(C)C)c1.Cl', 1),
  ('C=CCOC(=O)C(C)(C)OC(=O)c1cc(-n2c(=O)cc(C(F)(F)F)n(C)c2=O)ccc1Cl', -1),
  ('CCNc1nc(Cl)nc(NC(C)C)n1', -1),
  ('CC(C)CC(C)c1sccc1NC(=O)c1cn(C)nc1C(F)(F)F (configuration not stated)', -1),
  ('COC(=O)N(OC)c1ccccc1COc1ccn(-c2ccc(Cl)cc2)n1', -1),
  ('COc1nc(NC(C)C)nc(NC(C)C)n1', 1);

---

# Tested on: Bacteroides clarus
# assay: growth AUC relative to DMSO control (median of replicates) (fraction); higher = more growth (less inhibition), active = hit call of the paper
# conditions: 20 µM; 24 h
Listing: growth AUC of selected molecules
measured-attribute: growth AUC

INSERT INTO measurements (molecule, reading) VALUES
  ('Nc1cc(Cl)cc(C(=O)O)c1Cl', 1.02),
  ('CC1(C)C(C=C(Cl)Cl)C1C(=O)OC(C#N)c1cccc(Oc2ccccc2)c1 (mixture of isomers)', 1),
  ('CCNc1nc(NCC)nc(SC)n1', 1.02),
  ('CCC(C)Nc1c([N+](=O)[O-])cc(C(C)(C)C)cc1[N+](=O)[O-] (stereo unspecified)', 0.939),
  ('N#Cc1c[nH]cc1-c1cccc2c1OC(F)(F)O2', 0.918),
  ('COP(=S)(OC)Oc1ccc(SC)c(C)c1', 0.952),
  ('CC(Oc1ccc(Oc2ccc(C(F)(F)F)cn2)cc1)C(=O)O (stereo unspecified)', 1.02),
  ('O=C1C=C(N(Cc2ccc(Cl)nc2)CC(F)F)CO1', 0.991),
  ('CCCCOCN(C(=O)CCl)c1c(CC)cccc1CC', 0.955),
  ('CCOC(=O)COc1cc(-c2nn(C)c(OC(F)F)c2Cl)c(F)cc1Cl', 0.986),
  ('CCCN(CCC)N=O', 1.02);

---

growth AUC for assorted compounds
# System: Bacteroides dorei
# assay: growth AUC relative to DMSO control (median of replicates) (fraction); higher = more growth (less inhibition), active = hit call of the paper
# conditions: 20 µM; 24 h
measured-attribute: growth AUC

INSERT INTO assay_data (compound, measured_attribute, reading) VALUES
  ('C[C@@H]1C[C@@H]([C@H](O)CC2CC(=O)NC(=O)C2)C(=O)[C@@H](C)C1', 'growth AUC', '0.98 (inactive)'),
  ('CC(Cl)(Cl)C(=O)O', 'growth AUC', '1.02 (inactive)'),
  ('COP(=O)(OC)O/C(C)=C/C(=O)N(C)C', 'growth AUC', '0.993 (inactive)'),
  ('O=[N+]([O-])c1ccccc1', 'growth AUC', '0.97 (inactive)'),
  ('COP(=O)(OC)OC1=C(Cl)C2C=CCC12 (stereo not given)', 'growth AUC', '1 (inactive)'),
  ('CNC(=O)Oc1cccc2ccccc12', 'growth AUC', '0.991 (inactive)'),
  ('C=C(C)CN(CC)c1c([N+](=O)[O-])cc(C(F)(F)F)cc1[N+](=O)[O-]', 'growth AUC', '1.02 (inactive)'),
  ('CNC(=O)CSP(=S)(OC)OC', 'growth AUC', '0.901 (inactive)'),
  ('CCc1cccc(C)c1N(C(=O)CCl)C(C)COC (stereo not given)', 'growth AUC', '0.995 (inactive)'),
  ('CC(C)Nc1nc(Cl)nc(NC(C)C)n1', 'growth AUC', '0.965 (inactive)'),
  ('NC(=S)c1c(Cl)cccc1Cl', 'growth AUC', '0.935 (inactive)'),
  ('CCOC(=O)CCN(SN(C)C(=O)Oc1cccc2c1OC(C)(C)C2)C(C)C', 'growth AUC', '1 (inactive)'),
  ('COc1nc(C)nc(NC(=O)NS(=O)(=O)c2ccccc2CCC(F)(F)F)n1', 'growth AUC', '0.992 (inactive)'),
  ('C=CCOC(=O)C(C)(C)OC(=O)c1cc(-n2c(=O)cc(C(F)(F)F)n(C)c2=O)ccc1Cl', 'growth AUC', '0.969 (inactive)'),
  ('COP(=S)(NC(C)C)Oc1ccc(C)cc1[N+](=O)[O-] (stereo not given)', 'growth AUC', '0.982 (inactive)'),
  ('CCC1COC(Cn2cncn2)(c2ccc(Cl)cc2Cl)O1 (stereo not given)', 'growth AUC', '0.976 (inactive)'),
  ('Oc1cc(Cl)cc(Cl)c1', 'growth AUC', '0.996 (inactive)'),
  ('CC1(C)OC(c2ccco2)CN1C(=O)C(Cl)Cl (stereo not given)', 'growth AUC', '1 (inactive)'),
  ('CCO/N=C(\CC)C1=C(O)CC(c2c(C)cc(C)cc2C)CC1=O (stereo not given)', 'growth AUC', '0.999 (inactive)'),
  ('N#Cc1cc(I)c(O)c(I)c1', 'growth AUC', '0.776 (inactive)'),
  ('OC(c1ccc(Cl)cc1)(c1cncnc1)c1ccccc1Cl (stereo not given)', 'growth AUC', '0.893 (inactive)'),
  ('C1=Cc2cccc3cccc1c23', 'growth AUC', '1.02 (inactive)'),
  ('CO/N=C(/C1=NOCCO1)c1ccccc1Oc1ncnc(Oc2ccccc2Cl)c1F', 'growth AUC', '0.938 (inactive)'),
  ('CCCN(CC)CC1COC2(CCC(C(C)(C)C)CC2)O1 (stereo not given)', 'growth AUC', '1.07 (inactive)'),
  ('O=C(O)c1ccc(Cl)nc1', 'growth AUC', '0.985 (inactive)');
